Experiment: Solubility of NRC-AN-019 (aqueous at physiological pH; organic solvents)
Type: physicochemical
Conditions: aqueous medium at pH 1.2 (buffer not named), pH 1.2, simulated gastric fluid

# record-smiles, solubility
records = [
    ("Cc1ccc(NC(=O)c2cc(C(F)(F)F)cc(C(F)(F)F)c2)cc1Nc1nccc(-c2cccnc2)n1", "6.6 µg/mL"),
]

====

Assay: Oral gavage pharmacokinetics (suspension) in albino wistar rats
Conditions: rat, in vivo, oral gavage 40 mg/kg·bw, read-out: average AUC0-∞

# record-smiles, scale-unit, AUC(0-inf)
rows = [
    ("Cc1ccc(NC(=O)c2cc(C(F)(F)F)cc(C(F)(F)F)c2)cc1Nc1nccc(-c2cccnc2)n1", "ng·h/mL", 453),
]
